target: HLA-DR1 (DRA*01:01/DRB1*01:01) (Homo sapiens, UniProt P01903+P01911, A100R/D57E/F55L/F60I/F76Y/I96L/L162R/M171V/P40L/Q125E/R42F/V115G/Y59C); construct: HLA-DR1 (DRA*01:01/DRB1*01:01) extracellular domain was expressed in Drosophila S2 cells; made in house; experiment: biochemical; assay type: binding; settings: competition with 25 nM Alexa488-labeled HA for DR1 (100 nM per method, 150 nM per Fig 7/8 legends), 37°C, 72 h, fluorescence polarization; mean ± SD of two experiments; read-out: IC50
pIC50: −log10 of the molar value. Ends that are not written are not given here.
assay.readout: pIC50

substance	observed.result
Ac-PRYVKQNTLRLAT [HA, reference compound]	7.40

Ref: paper PMC6028098
